Provide the recorded growth for the entries that follow.
- Tested on: IGROV1 ovarian
- test_method_notes: NCI-60 one-dose screen, 48 h (100 = growth as untreated, 0 = no growth, -100 = all killed)
- particulars: 10 µM unless noted
The panel holds about 83,000 compounds, 20% with a hit somewhere; the sample as a whole holds those more often.
Only the number, expressed in %, is required.

# query: growth of entry COc1cnc2c(c1)C(=O)c1c-2n(CCCN2CCNCC2)c(=O)c2cc(F)ccc12 23

Reported growth, molecule COc1ccc(/C=C2\CCc3ccccc3C2=O)cc1 : ____ 81.8

Quick one: growth of C/C(=C\CCc1ccoc1)CC/C=C(\C)CCCNc1ccc(F)cc1 ? 91.7

Please look up its growth: N#Cc1c(-c2ccccc2)cc(-c2ccccc2)n(CC(=O)O)c1=O 61.4

Please report the recorded growth for Oc1c(Cl)cc(Oc2cc(Cl)c(O)c(CN3CCOCC3)c2)cc1CN1CCOCC1 . 92.5

Please give the measured growth for this molecule: COc1ccc2nc(NC(=O)CN3CCn4c(nnc4C(F)(F)F)C3)sc2c1 92.8

// lookup growth for O=C(Nc1nc(-c2ccc(Cl)cc2)cs1)c1cc(-c2ccc(Br)cc2)nc2ccc(Cl)cc12 30.8

Need growth of COc1ccc(OC)c2c1CCC1(C2)NC(=O)NC1=O (stereo unspecified) , thanks. 110

Please look up its growth: NC(=N\N=C/Cc1ccccc1)/C(N)=N\N=C\Cc1ccccc1 119

// growth lookup, key: Cc1sc2nc3c4ccccc4c(NCCCN(C)C)nn3c(=O)c2c1C 23.4

Please report the recorded growth for COCCOCCOCCOCCOc1ccc2c(c1)C(=O)c1nc3ncccc3c(=O)n1-2 . 7.34

Item under review: CN1CCN(c2nc3scc(-c4ccccc4)c3c(=O)[nH]2)CC1 . Reported growth? 97.6

Need growth of O=c1sc2ncnc3ncn1c32 , thanks. 96

Item CCCCOP(=O)(OCCCC)C(C(=O)OCC)C(CC(=O)OCC)C(=O)OCC (stereo unspecified) has what recorded growth? 112

Consider the molecule O=C(Nc1nc2c(C(F)(F)F)cccc2s1)c1cc(Cl)ccc1O and give its measured growth. 24.2

Could you tell me which growth is on file for Clc1ccc2[nH]cc(-c3cncn3CCc3ccccc3)c2c1 ? 69.3

Could you share which growth value was measured for CC(=O)Nc1c(Cl)cc2c(c1Cl)Cc1cc([N+](=O)[O-])ccc1-2 ? 117

Which growth value is on record for COC(=O)C1(NC(=O)CNC(=O)OCc2ccccc2)CCCC1 ? 115

Given the entry N#Cc1c(-c2ccccc2)cc(-c2ccccc2)n(CCC(=O)O)c1=O , report its measured growth. 50.2

Record request: growth value, item CC(C)=CCNc1ncnc2c1ncn2C1OC(COP(=O)(O)O)C(O)C1O (stereo unspecified) 54.6

# get_value(readout='growth', item= COc1ccc(Cl)cc1Nc1nc(C(F)(F)F)ccc1C(=O)N/N=C/c1c(Cl)cccc1Cl ) 29.6

* * *

- Test system: HOP-92 NSCLC
- test_method_notes: NCI-60 one-dose screen, 48 h (100 = growth as untreated, 0 = no growth, -100 = all killed)
- particulars: 10 µM unless noted
About 83,000 compounds went through this panel and 20% of them were active in at least one assay; those are over-represented in the sample as a whole.
experimental_readout: growth (%)
Entry rule: numbers only, all in %.

Record request: growth value, item CCOC(=O)N1CCC(N=C2CSc3nnc(-c4cc(C(F)(F)F)cc(C(F)(F)F)c4)n3N2)CC1 19.9

What does the data say about its growth? Entry: CCOc1nc(-c2ccco2)n2nc(-c3ccco3)cc2n1 92

Can you share its growth? I mean this compound: O=C(Nc1ccccc1)c1cc(-n2cnc([N+](=O)[O-])c2)cc(-n2cnc([N+](=O)[O-])c2)n1 49.7

Bench note: what growth did COc1ccc2c(c1)C(=Nc1cc(OC)c(OC)c(OC)c1)C(=O)N2 show? 56.8
